measured-on: Y254F N-His6-FhuD2 (Staphylococcus aureus, UniProt Q7BGA5, Y278F)
assay-info: Intrinsic Trp fluorescence quenching binding assay, FhuD2 mutant Y254F
Set-up: species or system S. aureus
test-parameters: app Kd, FhuD2 variant Y254F
reported-metric: pKd
Quick note: pKd means taking -log10 of the concentration in moles per liter.

Give me measured pKd, please, for this compound: CC(=O)N(O)CCCCCNC(=O)CCC(=O)N(O)CCCCCNC(=O)CCC(=O)N(O)CCCCCN [DFOB, desferrioxamine B]
7.30

====

measured-on: W255A (Staphylococcus aureus, UniProt Q7BGA5, W279A)
assay-info: Intrinsic Trp fluorescence quenching
test-parameters: read-out: app Kd; SD, n = 2
reported-metric: Kd (nM)
Only the number, expressed in nM, is required.

Give me measured Kd, please, for this compound: O=C1CCC(=O)N(O)CCCCCNC(=O)CCC(=O)N(O)CCCCCNC(=O)CCC(=O)N(O)CCCCCN1.[Fe+3]
30

====

measured-on: Y169F N-His6-FhuD2 (Staphylococcus aureus, UniProt Q7BGA5, Y193F)
assay-info: Intrinsic Trp fluorescence quenching binding assay, FhuD2 mutant Y169F
Design: species or system S. aureus
test-parameters: read-out: app Kd; FhuD2 variant Y169F
reported-metric: Kd
Numeric answer plus unit only.

Give me measured Kd, please, for this molecule: CC(=O)N([O-])CCCCCNC(=O)CCC(=O)N([O-])CCCCCNC(=O)CCC(=O)N([O-])CCCCCN.[Fe+3] [FOB, ferrioxamine B]
40 nM

====

measured-on: Y254F (Staphylococcus aureus, UniProt Q7BGA5, Y278F)
assay-info: Intrinsic Trp fluorescence quenching
test-parameters: read-out: app Kd; SD, n = 2
reported-metric: pKd
Quick note: pKd means taking -log10 of the concentration in moles per liter.

Give me measured pKd, please, for this compound: CC(=O)N([O-])CCCCCNC(=O)CCC(=O)N([O-])CCCCCNC(=O)CCC(=O)N([O-])CCCCCN.[Fe+3]
8.00

====

Hi there, I'd appreciate the recorded Kd for every entry that follows.
measured-on: Y169F (Staphylococcus aureus, UniProt Q7BGA5, Y193F)
assay-info: Intrinsic Trp fluorescence quenching
test-parameters: read-out: app Kd; SD, n = 2
Only the number, expressed in nM, is required.

Give me measured Kd, please, for this compound: O=C1CCC(=O)N(O)CCCCCNC(=O)CCC(=O)N(O)CCCCCNC(=O)CCC(=O)N(O)CCCCCN1.[Fe+3]
20

Give me measured Kd, please, for this compound: CC(=O)N([O-])CCCCCNC(=O)CCC(=O)N([O-])CCCCCNC(=O)CCC(=O)N([O-])CCCCCN.[Fe+3]
40

====

measured-on: Y256F (Staphylococcus aureus, UniProt Q7BGA5, Y280F)
assay-info: Intrinsic Trp fluorescence quenching
test-parameters: read-out: app Kd; SD, n = 2
Hi there, I'd appreciate the recorded Kd for every entry that follows.
Only the number, expressed in nM, is required.

Give me measured Kd, please, for this compound: CC(=O)N([O-])CCCCCNC(=O)CCC(=O)N([O-])CCCCCNC(=O)CCC(=O)N([O-])CCCCCN.[Fe+3] [FOB, ferrioxamine B]
60

Give me measured Kd, please, for this compound: O=C1CCC(=O)N(O)CCCCCNC(=O)CCC(=O)N(O)CCCCCNC(=O)CCC(=O)N(O)CCCCCN1.[Fe+3] [FOE, ferrioxamine E]
40
